# experimental protocol: Toxicity in C57BL/6J mouse splenic lymphocytes after 72 hrs by Alamar blue Assay
# Assay type: cell-based
# assay conditions: splenic lymphocyte
pIC50: −log10 of the molar value.
Below, each entry is listed with its recorded pIC50.
quantity: pIC50

| molecule | quantity | data value |
| --- | --- | --- |
| COC1=CC(c2ccc[nH]2)=N/C1=C\c1[nH]ccc1Cc1ccc(Cl)cc1 | pIC50 | > 6.90 |
| COC1=CC(c2ccc[nH]2)=N/C1=C\c1[nH]c(Cc2ccc(F)cc2)cc1Cc1ccc(Cl)cc1 | pIC50 | > 6.90 |
| COC1=CC(c2ccc[nH]2)=N/C1=C\c1[nH]c(Cc2ccccc2Cl)cc1Cc1ccccc1Cl | pIC50 | > 6.90 |
| CCN(CC)CCCC(C)Nc1ccnc2cc(Cl)ccc12 (centres undefined) | pIC50 | 4.80 |
| CCCCCCCCCCCc1ccc(/C=C2\N=C(c3cccs3)C=C2OC)[nH]1 | pIC50 | 5.67 |
| CCCCCCCc1cc(Cc2ccc(Cl)cc2)c(/C=C2\N=C(c3ccc[nH]3)C=C2OC)[nH]1 | pIC50 | > 6.90 |
| CCCc1cc(Cc2ccc(Cl)cc2)c(/C=C2\N=C(c3ccc[nH]3)C=C2OC)[nH]1 | pIC50 | > 6.90 |
| COC1=CC(c2ccc[nH]2)=N/C1=C\c1[nH]c(Cc2ccc(Br)cc2)cc1Cc1ccc(Cl)cc1 | pIC50 | > 6.90 |
| COC1=CC(c2cccs2)=N/C1=C\c1[nH]c(C)cc1C | pIC50 | 5.45 |

* * *

# Tested on: Plasmodium falciparum
# experimental protocol: Antimalarial activity multidrug-resistant Plasmodium falciparum Dd2 after 72 hrs by SYBR Green I based fluorescence assay
# Assay type: functional, organism-based
# assay conditions: Dd2, 72 h
pIC50: −log10 of the molar value.
Below, each entry is listed with its recorded pIC50.

| smiles repr | test target | modifier sign | pIC50 |
| --- | --- | --- | --- |
| CCCCc1cc[nH]c1/C=C1\N=C(c2ccc[nH]2)C=C1OC | Plasmodium falciparum | = | 7.74 |
| CCCCCCCCCCCc1ccc(/C=C2\N=C(c3cccs3)C=C2OC)[nH]1 | Plasmodium falciparum | = | 5.11 |
| CCCCCCCCc1cc(Cc2ccc(Br)cc2)c(/C=C2\N=C(c3ccc[nH]3)C=C2OC)[nH]1 | Plasmodium falciparum | = | 8.54 |
| CCCCCCCCCCCCCCCCc1cc[nH]c1/C=C1\N=C(c2ccc[nH]2)C=C1OC | Plasmodium falciparum | < | 4.60 |

* * *

# System: Plasmodium falciparum
# experimental protocol: Antimalarial activity multidrug-resistant Plasmodium falciparum Dd2 after 72 hrs by SYBR Green I based fluorescence assay
# Format: functional, organism-based
# assay conditions: Dd2, 72 h

| smiles repr | IC50 |
| --- | --- |
| COC1=CC(c2ccc[nH]2)=N/C1=C\c1[nH]ccc1Cc1ccc(OC)cc1 | 156 nM |
| CCCCCCCCc1ccc(/C=C2\N=C(c3ccc[nH]3)C=C2OC)[nH]1 | 130 nM |
| COC1=CC(c2cc3ccccc3[nH]2)=N/C1=C\c1[nH]c(C)cc1C | 4950 nM |
| CCCCCCc1cc(Cc2ccc(Br)cc2)c(/C=C2\N=C(c3ccc[nH]3)C=C2OC)[nH]1 | 2.8 nM |
| COC1=CC(c2ccc[nH]2)=N/C1=C\c1[nH]ccc1Cc1ccc(Cl)cc1 | 81 nM |
| CCCCCCc1ccc(/C=C2\N=C(c3ccc[nH]3)C=C2OC)[nH]1 | 450 nM |
| CCCCCCc1cc(Cc2ccc(Cl)cc2)c(/C=C2\N=C(c3ccc[nH]3)C=C2OC)[nH]1 | 1.8 nM |
| COC1=CC(c2ccc[nH]2)=N/C1=C\c1[nH]c(Cc2ccc(F)cc2)cc1Cc1ccc(F)cc1 | 5.7 nM |
| CCCCCCCCc1cc[nH]c1/C=C1\N=C(c2ccc[nH]2)C=C1OC | 1.8 nM |
